- Test system: KM12 colon
- experiment summary: NCI-60 one-dose screen, 48 h
- experimental setup: 10 µM unless noted
About 83,000 compounds went through this panel and 20% of them were active in at least one assay; those are over-represented in the sample as a whole. Active and inactive are the calls of the source. How the source made its calls: active means growth percent below 10; inactive means the rest.
Answer with one of the outcomes given here: active, inactive

Here are 6 molecules together with their reported answers.
molecule: CCOC(=O)Cn1c(=O)c2c(c3ccccc3n2C)n2nnc(-c3ccccc3)c12
label: inactive

molecule: Oc1ccc(-c2nc3ccc4[nH]ncc4c3c3c2CCCC3)c2cccnc12
label: active

molecule: O=C(O)c1cn(C2CC2)c2cc(N3CCN(C(=O)Nc4nc(-c5ccc(Cl)cc5)cs4)CC3)c(F)cc2c1=O
label: active

molecule: Cc1cccc2c3c(sc12)C(c1ccc(Cl)cc1)C(C#N)=C(N)O3 (centres undefined)
label: active

molecule: Cn1cc(-c2cc3ncnc(Nc4ccc(CC(=O)Nc5cc(C(C)(C)C)on5)cc4)c3s2)cn1
label: inactive

molecule: COc1cccc(-c2nn(-c3ccccc3)cc2-c2ccnc(N3CCOCC3)c2)c1
label: inactive

q: Hey, what did the test say about COc1ccc(-n2c(N)c(-c3nc4ccccc4[nH]3)cc(C#N)c2=O)cc1 ?
a: inactive

q: Request: Cc1ccc2sc3c(NCCCN)nc4ccccc4c3c(=O)c2c1
a: active

q: Also CCN(CC)CCNC(=O)c1cn2ncnc(Oc3ccc(NC(=O)Nc4ccc(Cl)c(C(F)(F)F)c4)cc3)c2c1C , if possible.
a: active

---

Quick reference for growth among some compounds
- Tested on: SW-620 colon
- experiment summary: NCI-60 one-dose screen, 48 h (100 = growth as untreated, 0 = no growth, -100 = all killed)
- experimental setup: 10 µM unless noted
About 83,000 compounds went through this panel and 20% of them were active in at least one assay; those are over-represented in the sample as a whole.
Just the number in %, nothing appended.

compound: O=C(/C=C/c1ccc([N+](=O)[O-])o1)NNC(=O)c1cc2ccccc2cc1O
observed result: -5.85

compound: Cc1ccc(C(=O)NN2C(=O)CSC2c2ccc(Cl)cc2)cn1 (stereo not given)
observed result: 97

compound: Cc1[nH]c(C(=O)Nc2ccc(C(=O)NCCN)cc2OC(C)C)c(Cl)c1Cl
observed result: -89

compound: O=C1COCCN1c1ccc(NCc2cn(C(=O)c3ccc(Cl)cc3)c3ccccc23)cc1
observed result: 40.4

compound: CNC(C)[C@H]1CCC2C3CCC4C[C@@H](N(C)C(=O)c5ccccc5)CC[C@]4(C)C3CC[C@@]21C (stereo not given in full)
observed result: -21.7

compound: Cc1ccc(-c2nc(N3CCN(C(=O)Nc4ccc(Cl)c(C(F)(F)F)c4)CC3)c3ccccc3n2)cc1
observed result: 84.8

q: // returns reported growth for input COc1cccc(Cc2nn3cc(-c4ccccc4)nc3s2)c1
a: 30.6

q: Now consider CN(C)CCN1CCN(c2ncccc2C2Nc3ccccc3-n3cccc32)CC1 (stereo not given) and answer again.
a: 97.8

q: Queued: Cc1nn(-c2ccccc2)c(-n2ccnc2)c1/C=N/Nc1nc(-c2ccc(Cl)c(Cl)c2)cs1
a: 30.6

q: Now this one: Cc1cccc(OCC(O)CN2CCN(c3ccc(Cl)cc3)CC2)c1 (stereo not given)
a: 104

---

- Tested on: NCI/ADR-RES ovarian
- experiment summary: NCI-60 one-dose screen, 48 h (100 = growth as untreated, 0 = no growth, -100 = all killed)
- experimental setup: 10 µM unless noted
About 83,000 compounds went through this panel and 20% of them were active in at least one assay; those are over-represented in the sample as a whole.
Reported growth values for a set of compounds
Quick note: give the figure in %, leave out the unit.

compound: COc1ccc(S(=O)(=O)n2c3ccccc3n3ncc(-c4nnc(C)o4)c23)cc1
growth [%]: -25.1

compound: COc1ccc2c(c1)c(-c1ccc(-c3cn(C)c4ccc(OC)cc34)o1)cn2C
growth [%]: 38.7

compound: O=C(/C=C/c1cccc2ccccc12)c1ccc(NC(=O)c2ccccc2CN2C(=O)c3ccccc3C2=O)cc1
growth [%]: 61

compound: CNC(=O)c1cc(-n2ccc3cc(NC(=O)c4ccc(N5CCOCC5)c(C(F)(F)F)c4)ccc32)ccn1
growth [%]: 45.7

compound: Cc1cc(N2CCCC2)nc(N(CCCNc2ccnc3cc(Cl)ccc23)Cc2ccccn2)n1
growth [%]: 39.2

compound: COc1cc(C)c(Cc2cnc(N)nc2N)cc1OC
growth [%]: 104

compound: C=C1C(=O)O[C@H]2[C@H]1CC/C(COC(=O)NCCOCCOCC(=O)Nc1ccc(OC)c(C(N)=O)c1O)=C\CC[C@@]1(C)O[C@@H]21
growth [%]: 94.6

compound: Cc1ccc(C(=O)N/N=C/c2cccc(Oc3ccccc3)c2)cn1
growth [%]: 19.8

q: Any idea what its growth is? The compound is CNc1nc2c(s1)C(c1cccc(F)c1)CC(=O)N2 (stereo not given)
a: 103

q: Do the same for O=C(CSc1nccc(Nc2ccc(S(=O)(=O)Nc3nccs3)cc2)n1)c1ccc(C(F)(F)F)cc1 please
a: 98.5

---

- Tested on: T-47D breast
- experiment summary: NCI-60 one-dose screen, 48 h
- experimental setup: 10 µM unless noted
This is part of a sample that, as a whole, favours compounds with a hit. Of some 83,000 tested, about 20% had one in any assay. Calls of active or inactive are those of the source. Rule for the calls: active = growth percent below 10; inactive = the rest.
# output must be one of active, inactive

compound: O=C(/C=C/c1cccc2ccccc12)c1ccc(NC(=O)c2ccccc2CN2C(=O)c3ccccc3C2=O)cc1
assay system: T-47D breast
label: inactive
--
compound: CC1Cc2ccccc2N1NC(=O)c1ccc(Cl)c(S(N)(=O)=O)c1 (centres undefined)
assay system: T-47D breast
label: inactive

q: Test call, this compound: CCS(=O)(=O)c1ncnc2nc[nH]c12
a: inactive

q: Param item: Cc1ccc(S(=O)(=O)Oc2ccc(NC(=O)c3ccc(Cl)cc3)cc2)cc1
a: inactive

q: Input CCCC1CCC(O)(C(C)(O)C(=O)NC2C(=O)N3NCCCC3C(=O)N(O)C(C)C(=O)N3NCCCC3C(=O)N3NCC(O)CC3C(=O)NC(C)C(=O)OC2C(C)C)OC1CC (centres undefined)
a: active

q: Thanks! And COc1cccc2c(=O)c3c(sc12)c(NCCCN)nc1ccccc13 ?
a: inactive

q: Let us now turn to N#Cc1c(Nc2cccc(Cl)c2)sc(C(=O)c2cc3cc(Cl)ccc3o2)c1N
a: inactive

q: Another: COc1cc2cc(Oc3ccc(NC(=O)Nc4ccc(F)c(C(F)(F)F)c4)cc3)c(C)nc2cc1OCCN1CCOCC1
a: inactive

q: Next: CNCCCNc1nc2ccccc2c2c(=O)c3cc(OC)ccc3sc12
a: inactive

---

Below is a list of entries, each paired with its recorded growth value.
- Tested on: OVCAR-4 ovarian
- experiment summary: NCI-60 one-dose screen, 48 h (100 = growth as untreated, 0 = no growth, -100 = all killed)
- experimental setup: 10 µM unless noted
About 83,000 compounds went through this panel and 20% of them were active in at least one assay; those are over-represented in the sample as a whole.
Use % as the unit, but write only the number.

# example entries with known answers
compound smiles: Cc1ccc(C(=O)NCCNc2nccc(-c3c(-c4cccc(F)c4)nc4sccn34)n2)cc1
observed result: 67.8
--
compound smiles: O=C(N/N=C/c1ccc(Cl)cc1)c1ccc(C(F)(F)F)nc1Nc1cccc(C(F)(F)F)c1
observed result: 18.6
--
compound smiles: Cc1ccc2sc3c(NCCN)nc4ccccc4c3c(=O)c2c1
observed result: 67
--
compound smiles: Cc1nc2nc(SCC(=O)O)[nH]c2c(=O)[nH]1
observed result: 131

q: What does the data say about its growth? Entry: NCCCNc1nc2ccccc2c2c(=O)c3cccc(F)c3sc12
a: 26.2

---

- Test system: HCT-15 colon
- experiment summary: NCI-60 one-dose screen, 48 h (100 = growth as untreated, 0 = no growth, -100 = all killed)
- experimental setup: 10 µM unless noted
This is part of a sample that, as a whole, favours compounds with a hit. Of some 83,000 tested, about 20% had one in any assay.
Catalogue of growth readings, one per entry.
Unit % implied. Number only.

Consider the following illustrative entries.
compound: CC(C)(C)NC(=O)C(OC(=O)c1cccc(Cl)c1)c1ccc(Cl)cc1 (stereo not given)
growth (%): 103

compound: O=C(S)CNC(=O)c1ccccc1
growth (%): 112

compound: COc1cccc(-c2nc(-c3ccc(NC(=O)c4ccccc4)cc3)[nH]c2-c2ccnc(Br)c2)c1
growth (%): -0.905

compound: Cc1ccc(-c2nc(N3CCN(C(=O)Nc4ccc(Cl)c(C(F)(F)F)c4)CC3)c3ccccc3n2)cc1
growth (%): 70.3

Turning to the following compound.
q: Record request: growth value, item CCOC(=O)c1sc2ncc(-c3ccc(OC)cc3)n2c1C
a: 90.2
